# System: CHO cells
# test-description: Protein translation assay (puromycin incorporation in CHO cells, unstressed or Tg-stressed)
# Type: cell-based, Chinese hamster
# measurement-setup: Cricetulus griseus; CHO cells stressed with 300 nM Tg; media alone 100%, Tg alone 0%; read-out: % Recovery of protein expression (100 nM test compound)
Classes by activity at 0.1 µM: A = under 40%, B = from 40% up to 70%, C = 70% and over

molecule: O=C(NC1CCN(C[C@@H](O)COc2ccc(Cl)c(F)c2)CC1)c1cc2cc(Cl)ccc2o1 (single isomer, unassigned) [Compound 150]
measurement-target: CHO cells
classification: B

molecule: O=C(COc1ccc(Cl)cc1)NC1CCN(CC(O)COc2ccc(Cl)cc2)CC1 (centres unmarked) [Compound 5]
measurement-target: CHO cells
classification: B

molecule: O=C(COc1ccc(Cl)cc1)N[C@H]1CC[C@H](NCC(O)COc2ccc(Cl)cc2)CC1 (some centres unmarked) [Compound 1]
measurement-target: CHO cells
classification: B

molecule: O=C(COc1ccc(Cl)c(F)c1)N[C@H]1CC[C@H](NCC(O)COc2ccc(Cl)cc2)CC1 (some centres unmarked) [Compound 10]
measurement-target: CHO cells
classification: A

molecule: O=C(COc1ccc(Cl)c(F)c1)N[C@H]1CC[C@H](NCC(O)COc2ccc(Cl)c(F)c2)CC1 (some centres unmarked) [Compound 2]
measurement-target: CHO cells
classification: B

molecule: O=C(COc1ccc(Cl)c(F)c1)N[C@H]1CC[C@H](NC(=O)c2cc3cc(Cl)ccc3o2)CC1 [Compound 17]
measurement-target: CHO cells
classification: C

molecule: O=C(N[C@H]1CC[C@H](NCC(O)COc2ccc(Cl)c(F)c2)CC1)c1ccc2cc(Cl)ccc2n1 (some centres unmarked) [Compound 30]
measurement-target: CHO cells
classification: A

molecule: O=C(NC1CCN(C[C@H](O)COc2ccc(Cl)c(F)c2)CC1)c1cc2cc(Cl)ccc2o1 (single isomer, unassigned) [Compound 149]
measurement-target: CHO cells
classification: C

molecule: O=C(N[C@H]1CC[C@H](NC[C@@H](O)COc2ccc(Cl)c(F)c2)CC1)c1cc2cc(Cl)ccc2o1 (single isomer, unassigned) [Compound 154]
measurement-target: CHO cells
classification: C

molecule: O=C(COc1ccc(Cl)cc1)N[C@H]1CC[C@H](NC(=O)C2CNc3cc(Cl)ccc3O2)CC1 (some centres unmarked) [Compound 156]
measurement-target: CHO cells
classification: A

molecule: O=C(NC1CCN(CC(O)COc2ccc(Cl)c(F)c2)CC1)c1ccc2cc(Cl)ccc2n1 (centres unmarked) [Compound 22]
measurement-target: CHO cells
classification: B

molecule: O=C(COc1ccc(Cl)c(F)c1)N[C@H]1CC[C@H](NC(=O)C2Cc3cc(Cl)ccc3O2)CC1 (some centres unmarked) [Compound 19]
measurement-target: CHO cells
classification: A

* * *

# System: CHO cells
# test-description: Protein translation assay (puromycin incorporation in CHO cells, unstressed or Tg-stressed)
# Assay type: cell-based, Chinese hamster
# measurement-setup: Cricetulus griseus; CHO cells stressed with 300 nM Tg; media alone 100%, Tg alone 0%; read-out: % Recovery of protein expression (100 nM test compound)
activity at 0.1 µM listing for selected compounds.

compound: O=C(COc1ccc(Cl)c(F)c1)NC1CCN(CC(O)COc2ccc(Cl)c(F)c2)CC1 (single isomer, unassigned; (-)) [Compound 26]
activity at 0.1 µM, %: 34.2

compound: O=C(NC1CCN(C[C@H](O)COc2ccc(Cl)c(F)c2)CC1)c1ccc2cc(Cl)ccc2n1 (single isomer, unassigned) [Compound 152]
activity at 0.1 µM, %: 99.1

compound: O=C(COc1ccc(Cl)cc1)N[C@H]1CC[C@H](N2CC(COc3ccc(Cl)cc3)OC2=O)CC1 (some centres unmarked) [Compound 159]
activity at 0.1 µM, %: 23.9

compound: O=C(COc1ccc(Cl)cc1)NC1CCN(CC(O)COc2ccc(Cl)cc2)CC1 (single isomer, unassigned; (-)) [Compound 15]
activity at 0.1 µM, %: 35.6

compound: O=C(NC1CCN(CC(O)COc2ccc(Cl)c(F)c2)CC1)c1ccc2cc(Cl)ccc2c1 (centres unmarked) [Compound 21]
activity at 0.1 µM, %: 70.5

compound: O=C(COc1ccc(Cl)c(F)c1)N[C@H]1CC[C@H](NC[C@@H](O)COc2ccc(Cl)c(F)c2)CC1 (single isomer, unassigned) [Compound 6]
activity at 0.1 µM, %: 60.2

compound: O=C(COc1ccc(Cl)c(F)c1)N[C@H]1CC[C@H](NC(=O)c2cc3ccncc3o2)CC1 [Compound 24]
activity at 0.1 µM, %: 11.8

compound: O=C(COc1ccc(Cl)c(F)c1)NC1CCN(CC(O)COc2ccc(Cl)c(F)c2)CC1 (centres unmarked) [Compound 13]
activity at 0.1 µM, %: 49.6

compound: O=C(N[C@H]1CC[C@H](NCCOc2ccc(Cl)c(F)c2)CC1)c1cc2cc(Cl)ccc2o1 [Compound 32]
activity at 0.1 µM, %: 37.7

compound: CC1(C)CC(NC(=O)COc2ccc(Cl)c(F)c2)CC(C)(C)N1CC(O)COc1ccc(Cl)c(F)c1 (centres unmarked) [Compound 25]
activity at 0.1 µM, %: 11.4

compound: O=C(N[C@H]1CC[C@H](NCC(O)COc2ccc(Cl)c(F)c2)CC1)c1cc2cc(Cl)ccc2o1 (some centres unmarked) [Compound 147]
activity at 0.1 µM, %: 75.2

compound: O=C(COc1ccc(Cl)c(F)c1)NC1CCN(CCCOc2ccc(Cl)c(F)c2)CC1 [Compound 28]
activity at 0.1 µM, %: 38

compound: O=C(NC1CCN(CCCOc2ccc(Cl)c(F)c2)CC1)c1cc2cc(Cl)ccc2o1 [Compound 148]
activity at 0.1 µM, %: 37.2

compound: O=C(COc1ccc(Cl)cc1)N[C@H]1CC[C@H](NC(=O)[C@@H]2CNc3cc(Cl)ccc3O2)CC1 (single isomer, unassigned) [Compound 158]
activity at 0.1 µM, %: 86.8
